Experiment: Singlet oxygen quantum yields (singlet oxygen phosphorescence at 1270 nm)
Type: physicochemical
Conditions: aerated toluene, excitation 355 nm, 20-23° C., relative to TPP ΦΔ=0.58
attributeMeasured: ΦΔ (singlet oxygen quantum yield)

In the examples that follow, each entry is paired with its recorded ΦΔ (singlet oxygen quantum yield).
C=CCCOCCCCCCCCCCCCOc1ccc(-c2c3nc(c(-c4cc(OCCCCCCCCCC)c(OCCCCCCCCCC)c(OCCCCCCCCCC)c4)c4ccc([n-]4)c(-c4cc(OCCCCCCCCCC)c(OCCCCCCCCCC)c(OCCCCCCCCCC)c4)c4nc(c(-c5cc(OCCCCCCCCCC)c(OCCCCCCCCCC)c(OCCCCCCCCCC)c5)c5ccc2[n-]5)C=C4)C=C3)cc1.[Zn+2] [Example 73]: 0.71 ± 0.07
C=CCCOCCCCCCCCCCCCCCCCOc1ccc(C2=c3ccc4[n]3[Zn][n]3c(ccc3C(c3cc(OCCCCCCCCCC)c(OCCCCCCCCCC)c(OCCCCCCCCCC)c3)=C3C=CC(=N3)C=4c3cc(OCCCCCCCCCC)c(OCCCCCCCCCC)c(OCCCCCCCCCC)c3)C(c3cc(OCCCCCCCCCC)c(OCCCCCCCCCC)c(OCCCCCCCCCC)c3)=C3C=CC2=N3)cc1 [Example 75]: 0.71 ± 0.07
C=CCCOCCCCCCOc1ccc(-c2c3nc(c(-c4cc(OCCCCCC)c(OCCCCCC)c(OCCCCCC)c4)c4ccc([n-]4)c(-c4cc(OCCCCCC)c(OCCCCCC)c(OCCCCCC)c4)c4nc(c(-c5cc(OCCCCCC)c(OCCCCCC)c(OCCCCCC)c5)c5ccc2[n-]5)C=C4)C=C3)cc1.[Zn+2] [Example 69]: 0.71 ± 0.07
C=CCCOCCCCCCCCCCCCOc1ccc(-c2c3nc(c(-c4cc(OCCCCCCCCCCCCCCCC)c(OCCCCCCCCCCCCCCCC)c(OCCCCCCCCCCCCCCCC)c4)c4ccc([n-]4)c(-c4cc(OCCCCCCCCCCCCCCCC)c(OCCCCCCCCCCCCCCCC)c(OCCCCCCCCCCCCCCCC)c4)c4nc(c(-c5cc(OCCCCCCCCCCCCCCCC)c(OCCCCCCCCCCCCCCCC)c(OCCCCCCCCCCCCCCCC)c5)c5ccc2[n-]5)C=C4)C=C3)cc1.[Zn+2] [Example 74]: 0.71 ± 0.07
C=CCCOCCCCCCCCCCCCCCCCOc1ccc(-c2c3nc(c(-c4cc(OCCCCCCCCCCCCCCCC)c(OCCCCCCCCCCCCCCCC)c(OCCCCCCCCCCCCCCCC)c4)c4ccc([n-]4)c(-c4cc(OCCCCCCCCCCCCCCCC)c(OCCCCCCCCCCCCCCCC)c(OCCCCCCCCCCCCCCCC)c4)c4nc(c(-c5cc(OCCCCCCCCCCCCCCCC)c(OCCCCCCCCCCCCCCCC)c(OCCCCCCCCCCCCCCCC)c5)c5ccc2[n-]5)C=C4)C=C3)cc1.[Zn+2] [Example 76]: 0.66 ± 0.07

Shifting focus to the compound that follows.
Prompt: # get_value(readout='ΦΔ (singlet oxygen quantum yield)', item= C=CCCOCCCCCCCCCCCCOc1ccc(-c2c3nc(c(-c4cc(OCCCCCC)cc(OCCCCCC)c4)c4ccc([n-]4)c(-c4cc(OCCCCCC)cc(OCCCCCC)c4)c4nc(c(-c5cc(OCCCCCC)cc(OCCCCCC)c5)c5ccc2[n-]5)C=C4)C=C3)cc1.[Zn+2] [Example 78] )
Response: 0.78 ± 0.08
